# target-or-test-system: T1, Human EREG (Biacore analyte) (human, UniProt O14944 63-108)
# T1 construct: also called hEREG; human epiregulin
# T1 sequence (O14944 63-108 limits assumed): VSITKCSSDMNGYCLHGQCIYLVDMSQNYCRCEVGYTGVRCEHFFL
# test-details: SPR (Biacore T100), antibody captured on Protein A, EREG as analyte, single-cycle kinetics
# Method: The affinity and association rate constant of an anti-EREG antibody for an antigen were measured by the single-cycle kinetics method of surface plasmon resonance assay using Biacore™-T100 (GE Healthcare Japan). […] Then, the solution was switched to HBS-EP+, and the dissociation phase was measured for 15 minutes. […]
Please enter Met where kon is greater than or equal to 700000 M⁻¹ s⁻¹, and Not met where it is lower.

[Q] Check if kon >= 700000 M⁻¹ s⁻¹ (inclusive). Item: H240-G1d/L53-k (antibody, human IgG1, kappa, V domains shown) VH: QDQLVQSGAEVKKPGASVKVSCKASGFNIKDTYIQWVRQAPGQGLEWMGRIDPLRKQTKYREKFEGRVTITADTSTNTAYMELSSLRSEDTAVYYCVRSGREFDYWGQGTLVTVSS VL: DIQMTQSPSSLSASVGDRVTITCRASQDIHKYIAWYQQKPGQAPRLLIQYTSTLQPGVPSRFSGSGSGTDYTFTISSLQPEDIATYYCLQYDNLRTFGGGTKVEIKR
[A] Not met

[Q] Another binder: H206-G1d/L53-k (antibody, human IgG1, kappa, V domains shown) VH: QDQLVQSGAEVKNPGASVKVSCKASGFNIKDTYIQWVRQAPGQGLEWMGRIDPLRRQTKYREKFEGRVTITADTSTNTAYMELSSLRSEDTAVYYCVRSGREFDFWGQGTLVTVSS VL: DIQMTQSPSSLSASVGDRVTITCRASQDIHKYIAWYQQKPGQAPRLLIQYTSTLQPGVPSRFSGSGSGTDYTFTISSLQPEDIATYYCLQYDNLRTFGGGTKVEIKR
[A] Not met

[Q] Please do the same for H206-G1d/L73-k (antibody, human IgG1, kappa, V domains shown) VH: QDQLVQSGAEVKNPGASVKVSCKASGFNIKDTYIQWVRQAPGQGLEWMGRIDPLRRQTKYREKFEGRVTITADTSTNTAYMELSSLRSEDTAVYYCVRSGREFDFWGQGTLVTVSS VL: DIQMTQSPSSLSASVGDRVTITCRASQDIHKYIAWYQQKPGQAPRLLIQYTSTLQPGVPSRFSGSGSGTDYTFTISSLQPEDIATYYCLQYEQLRTFGGGTKVEIKR as well.
[A] Not met

[Q] Lookup H87-G1d/LB-k (antibody, human IgG1, kappa, V domains shown) VH: QDQLVQSGAEVKKPGASVKVSCKASGFNIKDTYIQWVRQAPGQGLEWMGRIDPLTGQTKYQEKFEGRVTITADTSTNTAYMELSSLRSEDTAVYYCVRSGTSFDFWGQGTLVTVSS VL: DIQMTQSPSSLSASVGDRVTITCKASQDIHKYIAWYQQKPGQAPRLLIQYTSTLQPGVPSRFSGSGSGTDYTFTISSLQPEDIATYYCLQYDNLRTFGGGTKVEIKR
[A] Met

[Q] Now give it for chimeric antibody EP27 (cH-G1/cL-k) (antibody, human IgG1, kappa, V domains shown, mouse EP27 variable regions with human IgG1 (G1) and kappa constant regions; also called chimeric EP27) VH: EDQLQQSGAELVKPGASVKLSCTASGFNIKDTYIQWVKLRPEQGLEWIGRIDPLNGNTKYVPKFQGKATITADTSSNTAYLQLSSLTSEDTAVYYCVRSGTLFDFWGQGTTLTVSS VL: DIQMTQSPSSLSASLGGKVTITCKASQDIHKYIAWYQHKPGKGPRLLIQYTSTLQPGIPSRFSGSGSGRDYSFSISNLEPEDIATYYCLQYDNLRTFGGGTKLEIKR too.
[A] Met

[Q] Also H240-G1d/L73-k (antibody, human IgG1, kappa, V domains shown) VH: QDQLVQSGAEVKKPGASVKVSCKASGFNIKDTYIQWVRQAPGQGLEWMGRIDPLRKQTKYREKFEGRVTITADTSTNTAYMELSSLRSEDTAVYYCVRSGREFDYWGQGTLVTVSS VL: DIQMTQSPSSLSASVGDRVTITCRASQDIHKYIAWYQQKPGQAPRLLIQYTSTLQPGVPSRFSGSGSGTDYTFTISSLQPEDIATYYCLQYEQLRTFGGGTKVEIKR , if possible.
[A] Not met
